Recorded measurements of Zone Size Sabouarud Agar, one per entry
System: Candida albicans B 311
Test: disc diffusion, zone of inhibition on seeded agar plates
Type: cell-based
Details: Table II; Sabouarud dextrose agar; composition of aculeacin A 1 µg + fatty acid 500 µg; 16-18 h, 37°C
Procedure: The antifungal activity of aculeacin A and the compositions of aculeacin A and fatty acids was measured by disc diffusion. The effects of a number of fatty acids on the antifungal activity of aculeacin A were determined by utilizing seeded plates of Candida albicans B 311 in yeast nitrogen base (YNB) agar (Difco) with glucose as the carbon source. […]
Reply numerically in mm, unit not repeated.

Consider the reported Zone Size Sabouarud Agar for these compounds:
CCCCCCCCCCCCCCCCCCCCCC(=O)O    14
CCCCCC/C=C/CCCCCCCCCC(=O)O    25
CCCCCCCCCCC(O)C(=O)O (stereo not drawn) [α-Hydroxy Lauric Acid]    15

INPUT: Given the entry "CCCCCCCC/C=C\CCCCCCCCCCCC(=O)O" , report its measured Zone Size Sabouarud Agar.
OUTPUT: 17

INPUT: Now this one: "CCCCCCCC/C=C\CCCCCCCC(=O)O"
OUTPUT: 26

INPUT: And for "CCCCCC/C=C/CCCCCCCC(=O)O" ?
OUTPUT: 30

INPUT: What do you have for "CCCCCCCC/C=C/CCCCCCCC(=O)O" ?
OUTPUT: 15
